- PROCEDURE_TEXT: Competitive ELISA, relative CTS specificity, CINO as competitor
- Format: binding
- SETTINGS: competition with immobilized MBG-BSA; normalized to MBG = 100%
READOUT_LABEL: Rel. CTS Specificity as % of MBG Binding: CINO (%)
Field: numeric (%). Do not append units.

stdin: Entry 203/204: human anti-MBG antibody, VH SEQ ID NO: 30, VL SEQ ID NO: 31 (antibody, listed as Homo sapiens, V domains shown) VH: QLQLQESGPGLVKPSETLSLTCTVSGGSISSYYWGWIRQPPGKGLEWIGSIYYSGSTYYNPSLKSRVTISVDTSKNQFSLQLKSVTPEDTAVYYCARVRPPAATFDYWGQGTLVTVSS VL: QSVVTQPPSVSAAPGQKVSISCSGGSSNIGNNYVSWYQQLPGTAPRLLIYENNNRPSGIPDRFSGSKSGTSATLGITGLQTGDEADYYCGTWDSSLRAVVFGGGTKLTVL : reported Rel. CTS Specificity as % of MBG Binding: CINO = ?
stdout: 0
